# SYSTEM: CDK2/CycA (Homo sapiens)
# MEASUREMENT DESCRIPTION: In vitro kinase inhibition assay, CDK2/CycA
MEASUREMENT KIND: IC50 (µM)

INSERT INTO measurements (given_smiles, val) VALUES
  ('COc1ccccc1-c1cc(Nc2cccc(S(N)(=O)=O)c2)ncn1', 10.1);

---

# SYSTEM: CDK7/CycH/MAT1 (Homo sapiens)
# Sequence (P50613 whole entry): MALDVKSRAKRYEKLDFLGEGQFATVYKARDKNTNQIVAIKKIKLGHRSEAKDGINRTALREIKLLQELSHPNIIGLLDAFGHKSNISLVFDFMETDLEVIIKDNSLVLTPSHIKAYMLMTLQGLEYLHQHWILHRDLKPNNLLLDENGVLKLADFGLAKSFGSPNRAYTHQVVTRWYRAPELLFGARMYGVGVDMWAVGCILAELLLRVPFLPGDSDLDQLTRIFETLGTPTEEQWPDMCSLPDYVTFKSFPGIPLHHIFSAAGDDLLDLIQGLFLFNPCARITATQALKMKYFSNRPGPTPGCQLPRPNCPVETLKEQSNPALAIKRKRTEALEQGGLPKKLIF
# Sequence (P51946 whole entry partner): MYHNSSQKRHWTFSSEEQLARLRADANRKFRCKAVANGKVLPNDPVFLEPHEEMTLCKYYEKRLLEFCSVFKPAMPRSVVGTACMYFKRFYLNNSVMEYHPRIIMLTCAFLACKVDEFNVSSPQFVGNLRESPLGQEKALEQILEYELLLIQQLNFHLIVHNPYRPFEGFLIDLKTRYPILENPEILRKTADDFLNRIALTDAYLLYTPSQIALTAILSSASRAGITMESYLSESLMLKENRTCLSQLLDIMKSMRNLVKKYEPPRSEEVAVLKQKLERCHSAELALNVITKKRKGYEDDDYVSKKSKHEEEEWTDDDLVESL
# Sequence (P51948 whole entry partner): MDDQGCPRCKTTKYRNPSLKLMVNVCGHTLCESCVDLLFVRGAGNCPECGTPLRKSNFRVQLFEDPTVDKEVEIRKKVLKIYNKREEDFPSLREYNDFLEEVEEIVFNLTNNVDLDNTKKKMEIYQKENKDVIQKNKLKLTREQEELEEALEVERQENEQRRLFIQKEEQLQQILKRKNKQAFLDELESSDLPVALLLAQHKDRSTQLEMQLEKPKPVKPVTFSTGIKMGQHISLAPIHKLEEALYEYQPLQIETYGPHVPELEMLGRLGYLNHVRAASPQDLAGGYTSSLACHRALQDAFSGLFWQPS
# MEASUREMENT DESCRIPTION: In vitro kinase inhibition assay, CDK7/CycH/MAT1
pIC50: −log10 of the molar value.
MEASUREMENT KIND: pIC50

INSERT INTO assay_data (compound, val) VALUES
  ('COc1ccccc1-c1cc(Nc2cccc(S(N)(=O)=O)c2)ncn1 [Compound A]', 5.00);

Measured values drawn from patent US20090221581A1 for this set.
